Give IC50 for every item shown.
System: BRCA2 (−/−) DLD1 cells
Assay: PARP proliferation assay (7 day compound dosing), BRCA2 (−/−) DLD1
Type: cell-based
Details: Homo sapiens, DLD-1, 168 h, BRCA2 −/− DLD-1 cells, 7 day dosing; read-out: BRCA2 −/− DLD-1 prolif. 7 d IC50
Description: PARP Proliferation Assay (7 Day Compound Dosing) DLD1 and BRCA2 (−/−) DLD1 cells were harvested to a density of 5000 cells/ml and 2.5E4 cells/ml respectively in complete media, 40 μL/well seeded into 384-well plates (Greiner, Kremsmunster, Austria; 781090) using a Multidrop Combi then incubated at 37° C., 5% CO2 overnight. […] Read all cells on the Cell Insight with 4× Objective. […]
Numbers only, in nM.

Example entries and their recorded answers appear below.
| Given smiles | System tested | Readout unit | IC50 |
| --- | --- | --- | --- |
| CCc1nc2ccc(CN3CCN(c4ccc(C(=O)NC)nc4Cl)CC3)c(F)c2[nH]c1=O | BRCA2 (−/−) DLD1 cells | nM | 4 |
| CNC(=O)c1ccc(N2CCN(Cc3ccc4nc(C)c(=O)[nH]c4c3Cl)CC2)c(C)n1 | BRCA2 (−/−) DLD1 cells | nM | 4330 |
| CCc1nc2ccc(CN3CCN(c4ccc(C(=O)NC)nc4Cl)CC3)c(Cl)c2[nH]c1=O | BRCA2 (−/−) DLD1 cells | nM | 12 |

Query :: // lookup IC50 for CNC(=O)c1ccc(N2CCN(Cc3ccc4ncc(=O)[nH]c4c3F)CC2)c(C)n1
Result :: 10300

* * *

hERG (Homo sapiens, UniProt Q12809) measurements of pIC50, listed per entry.
Sequence (Q12809 whole entry): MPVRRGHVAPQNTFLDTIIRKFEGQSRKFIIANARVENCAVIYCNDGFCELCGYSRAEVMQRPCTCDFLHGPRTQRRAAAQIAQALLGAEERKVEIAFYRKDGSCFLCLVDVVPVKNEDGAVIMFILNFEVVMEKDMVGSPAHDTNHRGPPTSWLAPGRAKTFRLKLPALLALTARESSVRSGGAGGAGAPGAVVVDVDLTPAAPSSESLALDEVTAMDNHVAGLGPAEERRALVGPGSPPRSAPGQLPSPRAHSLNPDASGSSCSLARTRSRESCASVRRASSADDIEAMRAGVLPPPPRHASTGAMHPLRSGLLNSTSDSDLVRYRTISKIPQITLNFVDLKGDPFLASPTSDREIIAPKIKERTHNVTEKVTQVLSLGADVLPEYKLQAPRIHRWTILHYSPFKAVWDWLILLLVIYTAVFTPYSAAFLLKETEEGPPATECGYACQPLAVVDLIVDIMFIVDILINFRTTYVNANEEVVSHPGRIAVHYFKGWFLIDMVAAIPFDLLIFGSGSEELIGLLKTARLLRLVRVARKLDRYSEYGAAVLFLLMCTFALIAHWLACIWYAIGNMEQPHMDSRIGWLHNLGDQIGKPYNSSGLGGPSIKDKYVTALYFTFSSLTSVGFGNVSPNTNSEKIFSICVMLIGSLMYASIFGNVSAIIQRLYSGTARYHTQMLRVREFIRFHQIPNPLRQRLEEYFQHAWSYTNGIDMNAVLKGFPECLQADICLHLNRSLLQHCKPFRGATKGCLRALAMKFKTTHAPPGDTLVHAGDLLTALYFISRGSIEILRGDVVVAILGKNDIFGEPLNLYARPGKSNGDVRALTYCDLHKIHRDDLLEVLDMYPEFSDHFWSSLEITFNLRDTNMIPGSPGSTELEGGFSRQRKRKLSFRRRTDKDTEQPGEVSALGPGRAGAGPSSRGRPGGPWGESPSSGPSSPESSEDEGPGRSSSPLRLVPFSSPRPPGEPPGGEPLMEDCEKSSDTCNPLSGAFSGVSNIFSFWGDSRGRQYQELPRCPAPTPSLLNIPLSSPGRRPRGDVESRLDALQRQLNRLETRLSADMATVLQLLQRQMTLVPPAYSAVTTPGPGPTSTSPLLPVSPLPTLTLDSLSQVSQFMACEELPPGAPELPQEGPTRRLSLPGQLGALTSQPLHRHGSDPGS
pIC50: −log10 of the molar value.

Example entries and their recorded answers appear below.
| Compound | pIC50 |
| --- | --- |
| CNC(=O)c1ccc(N2CCN(Cc3ccc4nc(C)c(=O)[nH]c4c3F)CC2)c(C)n1 | < 4.40 |
| CCc1nc2ccc(CN3CCN(c4ccc(C(=O)NC)nc4Cl)CC3)c(F)c2[nH]c1=O | < 4.42 |
| CNC(=O)c1ccc(N2CCN(Cc3ccc4nc(C)c(=O)[nH]c4c3C)CC2)cn1 | < 4.40 |
| CCc1nc2ccc(CN3CCN(c4ccc(C(=O)NC)nc4C)CC3)c(F)c2[nH]c1=O | < 4.40 |
| CNC(=O)c1ccc(N2CCN(Cc3ccc4nc(C)c(=O)[nH]c4c3C)CC2)c(Cl)n1 | < 4.40 |

Each compound below has a reported value. Please supply its pIC50.
1. CNC(=O)c1ccc(N2CCN(Cc3ccc4nc(C)c(=O)[nH]c4c3F)CC2)c(F)n1
2. CCc1nc2ccc(CN3CCN(c4ccc(C(=O)NC)nc4F)CC3)c(F)c2[nH]c1=O
3. CNC(=O)c1ccc(N2CCN(Cc3ccc4nc(C)c(=O)[nH]c4c3C)CC2)c(C)n1
4. CCc1nc2ccc(CN3CCN(c4ccc(C(=O)NC)nc4)CC3)c(Cl)c2[nH]c1=O
5. CCc1nc2ccc(CN3CCN(c4ccc(C(=O)NC)nc4F)CC3)c(Cl)c2[nH]c1=O
6. CNC(=O)c1ccc(N2CCN(Cc3ccc4nc(C)c(=O)[nH]c4c3C)CC2)c(F)n1
7. CNC(=O)c1ccc(N2CCN(Cc3ccc4nc(C)c(=O)[nH]c4c3Cl)CC2)cn1

Result ::
1. < 4.40
2. < 4.40
3. < 4.40
4. < 4.40
5. < 4.40
6. < 4.40
7. < 4.40

Each compound below has a reported value. Please supply its pIC50.
1. CNC(=O)c1ccc(N2CCN(Cc3ccc4nc(C(F)(F)F)c(=O)[nH]c4c3F)CC2)c(Cl)n1
2. CNC(=O)c1ccc(N2CCN(Cc3ccc4nc(C)c(=O)[nH]c4c3F)CC2)c(C(F)F)n1
3. CCc1nc2ccc(CN3CCN(c4ccc(C(=O)NC)nc4C(F)F)CC3)c(F)c2[nH]c1=O
4. CNC(=O)c1ccc(N2CCN(Cc3ccc4nc(C(F)(F)F)c(=O)[nH]c4c3F)CC2)c(C)n1

Result ::
< 4.40
< 4.40
< 4.44
< 4.40

Each compound below has a reported value. Please supply its pIC50.
1. CNC(=O)c1ccc(N2CCN(Cc3ccc4nc(C(C)(F)F)c(=O)[nH]c4c3F)CC2)c(C)n1
2. CNC(=O)c1ccc(N2CCN(Cc3ccc4nc(C)c(=O)[nH]c4c3F)CC2)cn1
3. CNC(=O)c1ccc(N2CCN(Cc3ccc4nc(C)c(=O)[nH]c4c3Cl)CC2)c(F)n1

Result ::
1: < 4.40; 2: < 4.40; 3: < 4.40

Each compound below has a reported value. Please supply its pIC50.
1. CNC(=O)c1ccc(N2CCN(Cc3ccc4nc(OC)c(=O)[nH]c4c3F)CC2)c(Cl)n1
2. CNC(=O)c1ccc(N2CCN(Cc3ccc4nc(OC)c(=O)[nH]c4c3F)CC2)cn1

Result ::
1. < 4.40
2. < 4.40
